system: SW-620; assay: NCI tumour cell line growth inhibition, 48 h
Calls of active or inactive are those of the source. Cut-off read from the data, not from the text of the source: active = GI50 up to about 1.1 µM and inactive = higher.
Respond using exactly one of the listed classes: yes (1) = active, no (0) = inactive

Examples from the recorded data:
{"Compound": "CN1C(NCCO)=NS(=O)(=O)c2ccccc21", "Classification": "no (0)"}
{"Compound": "CCN(CC)CCCCC1CCN(CC(=O)N2c3ccccc3NC(=O)CC2C)CC1 (configuration not stated)", "Classification": "no (0)"}
{"Compound": "N#CC(=N)c1ncn(-c2ccccc2N)c1N", "Classification": "no (0)"}
{"Compound": "O=C(/C=C/c1ccccc1Cl)c1cccc2ccccc12", "Classification": "no (0)"}
{"Compound": "CCOc1ccc(/N=C/c2c3ccccc3nc3ccccc23)cc1", "Classification": "no (0)"}

Called result for N=C(N)N/N=C/c1c(-c2ccc(Cl)c(Cl)c2Cl)nc2sccn12
no (0)

Also check CC1=NC(C(=O)O)Cc2c1[nH]c1ccccc21 (configuration not stated)
no (0)

Also check Cc1cc(/C=C/c2cc[n+](C)c3ccccc23)c(O)c2ncccc12
yes (1)

Also check O=C1CC2CCCC23CC2(CCN13)OCCO2 (configuration not stated)
no (0)

Also check COC(=O)c1cccc(C(=O)OC)c1
no (0)

Also check Cc1cc(C)c(S(=O)(=O)N2CCCN(S(=O)(=O)c3c(C)cc(C)cc3C)OCCCON(S(=O)(=O)c3c(C)cc(C)cc3C)CCCN(S(=O)(=O)c3c(C)cc(C)cc3C)OCCCO2)c(C)c1
no (0)

Also check CCN(CCCN(CC)C(=O)N[C@@H](Cc1ccccc1)C(=O)NC)C(=O)N[C@@H](Cc1ccccc1)C(=O)NC
no (0)

Also check CC(C)(C)c1ccc(-c2nc3ccc(Cl)cc3c(=O)o2)cc1
no (0)

Also check Cn1c2c(c3ccccc31)CCN(CCCCN1CCCCC1)C2=O
no (0)
